TGT: human DA D3 receptors (Homo sapiens (Human), UniProt P35462)
Sequence (P35462 whole entry): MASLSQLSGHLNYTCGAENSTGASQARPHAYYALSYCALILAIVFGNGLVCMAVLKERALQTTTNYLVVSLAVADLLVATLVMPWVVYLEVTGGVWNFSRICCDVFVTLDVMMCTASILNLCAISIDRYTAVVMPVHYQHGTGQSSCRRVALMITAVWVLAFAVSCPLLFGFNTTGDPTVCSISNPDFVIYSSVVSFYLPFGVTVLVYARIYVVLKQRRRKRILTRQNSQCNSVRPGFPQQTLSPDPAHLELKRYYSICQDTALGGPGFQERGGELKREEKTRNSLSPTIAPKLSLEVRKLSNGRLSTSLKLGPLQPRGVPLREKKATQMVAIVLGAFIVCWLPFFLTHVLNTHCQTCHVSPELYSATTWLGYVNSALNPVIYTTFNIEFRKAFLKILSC
PROTOCOL_DETAILS: [35S]GTPγS binding stimulation, human D3 receptors in CHO cells
Assay type: biochemical
QUANTITY: EC50 (pM)
Response body: numeric value in pM, unit text excluded.

Exercise: // returns reported EC50 for input CCCN(CCN1CCN(c2ccc3c(c2)[nH]c2ccccc23)CC1)[C@H]1CCc2c(O)cccc2C1 [Compound (−)-95a]
Key: 230

====

TGT: human DA D2 receptors (Homo sapiens (Human))
Sequence (P14416 whole entry): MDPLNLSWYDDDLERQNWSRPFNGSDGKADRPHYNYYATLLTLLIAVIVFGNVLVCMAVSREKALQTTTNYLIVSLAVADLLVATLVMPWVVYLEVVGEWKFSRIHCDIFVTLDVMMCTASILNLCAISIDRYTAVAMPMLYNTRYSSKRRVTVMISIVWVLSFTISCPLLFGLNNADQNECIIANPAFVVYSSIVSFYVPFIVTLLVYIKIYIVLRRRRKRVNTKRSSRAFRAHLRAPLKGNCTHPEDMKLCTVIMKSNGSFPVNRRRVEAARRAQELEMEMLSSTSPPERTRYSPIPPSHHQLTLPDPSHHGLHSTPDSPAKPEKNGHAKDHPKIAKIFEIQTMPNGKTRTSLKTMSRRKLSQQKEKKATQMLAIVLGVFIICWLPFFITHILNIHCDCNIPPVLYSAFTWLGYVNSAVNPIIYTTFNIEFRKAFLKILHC
PROTOCOL_DETAILS: [35S]GTPγS binding stimulation, human D2 receptors in CHO cells
Assay type: biochemical
CONDITION_SUMMARY: CHO cells; read-out: EC50 (GTPγS), D2
QUANTITY: EC50 (nM)
Response body: numeric value in nM, unit text excluded.

Exercise: // returns reported EC50 for input CCCN(CCN1CCN(c2cccc3[nH]c4ccccc4c23)CC1)[C@H]1CCc2c(O)cccc2C1 [Compound (−)-95c]
Key: 2.29

Exercise: // returns reported EC50 for input CCCN(CCN1CCN(c2ccc3[nH]c4ccccc4c3c2)CC1)[C@H]1CCc2nc(N)sc2C1 [(−)-91b]
Key: 48.7

Exercise: // returns reported EC50 for input CCCN(CCN1CCN(c2cccc3[nH]c4ccccc4c23)CC1)[C@H]1CCc2nc(N)sc2C1 [(−)-91c]
Key: 22.2

====

TGT: cloned D3 receptors (Rattus norvegicus (Rat), UniProt P19020)
Sequence (P19020 whole entry): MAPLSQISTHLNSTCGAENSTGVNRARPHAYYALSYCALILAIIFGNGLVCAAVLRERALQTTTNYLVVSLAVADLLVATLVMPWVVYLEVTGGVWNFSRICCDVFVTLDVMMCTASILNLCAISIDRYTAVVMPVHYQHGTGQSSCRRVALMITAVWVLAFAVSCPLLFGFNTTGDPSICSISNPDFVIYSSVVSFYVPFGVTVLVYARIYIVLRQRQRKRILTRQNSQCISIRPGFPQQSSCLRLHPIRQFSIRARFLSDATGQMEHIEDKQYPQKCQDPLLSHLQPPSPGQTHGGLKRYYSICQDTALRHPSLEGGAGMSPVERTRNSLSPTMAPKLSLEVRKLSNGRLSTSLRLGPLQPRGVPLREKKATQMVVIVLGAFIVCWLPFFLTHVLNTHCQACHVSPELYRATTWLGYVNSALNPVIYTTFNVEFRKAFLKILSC
PROTOCOL_DETAILS: [3H]spiperone displacement, cloned D3 receptors in HEK cells
Type: binding
CONDITION_SUMMARY: means±SEM for 3 experiments
QUANTITY: Ki (nM)
Response body: numeric value in nM, unit text excluded.

Exercise: // returns reported Ki for input CCCN(CCCCCc1ccc(O)c(OC)c1)[C@@H]1CCc2nc(N)sc2C1 [(−)-23]
Key: 1.57

Exercise: // returns reported Ki for input CCCN(CCCCCc1ccc(O)c(O)c1)[C@@H]1CCc2nc(N)sc2C1 [(−)-34]
Key: 1.42

Exercise: // returns reported Ki for input CCCN(CCCCCc1cc(O)ccc1O)C1CCc2nc(N)sc2C1 (stereo not shown)
Key: 1.01

Exercise: // returns reported Ki for input CCCN(CCCCCc1cc(O)ccc1O)[C@@H]1CCc2nc(N)sc2C1 [(−)-36]
Key: 0.78

Exercise: // returns reported Ki for input CCCN(C/C=C/c1ccc(O)c(OC)c1)C1CCc2nc(N)sc2C1 (stereo not shown)
Key: 39.1

Exercise: // returns reported Ki for input CCCN(CCCC1(O)C=CC(O)=CC1)C1CCc2nc(N)sc2C1 (stereo not shown)
Key: 11.9

Exercise: // returns reported Ki for input CCCN(CCCCCc1ccc(O)c(O)c1)C1CCc2nc(N)sc2C1 (stereo not shown)
Key: 2.59

Exercise: // returns reported Ki for input CCCN(CCC/C=C\c1ccc(O)c(OC)c1)C1CCc2nc(N)sc2C1 (stereo not shown)
Key: 23.3

Exercise: // returns reported Ki for input CCCN(CCCc1ccc(O)c(OC)c1)C1CCc2nc(N)sc2C1 (stereo not shown)
Key: 15.8

Exercise: // returns reported Ki for input CCCN(CCN1CCN(c2ccc3c(c2)C(=O)C(=O)N3)CC1)[C@H]1CCc2nc(N)sc2C1
Key: 14.2

====

TGT: cloned rat D3 receptors (Rattus norvegicus (Rat), UniProt P19020)
Sequence (P19020 whole entry): as the sequence (P19020 whole entry) above
PROTOCOL_DETAILS: [3H]spiroperidol competition binding, rat D3 receptors in HEK-293 cells
CONDITION_SUMMARY: rat D3 in HEK-293 cells; values of Table 3
QUANTITY: pKi
Schema: pKi number; meaning minus log10 of the concentration expressed in molar units.

Exercise: // returns reported pKi for input CCCN(CCN1CCN(c2cccc3[nH]c4ccccc4c23)CC1)[C@H]1CCc2c(O)cccc2C1 [Compound (−)-95c]
Key: 9.44

Exercise: // returns reported pKi for input CCCN(CCN1CCN(c2ccc3[nH]c4ccccc4c3c2)CC1)C1CCc2nc(N)sc2C1 (stereo not shown) [Compound 90b]
Key: 8.51

Exercise: // returns reported pKi for input CCCN(CCN1CCN(CCn2c3ccccc3c3ccccc32)CC1)C1CCc2nc(N)sc2C1 (stereo not shown) [Compound 100]
Key: 8.18

Exercise: // returns reported pKi for input CCCN(CCN1CCN(c2cccc3[nH]c4ccccc4c23)CC1)C1CCc2nc(N)sc2C1 (stereo not shown) [Compound 90c]
Key: 8.11

Exercise: // returns reported pKi for input CCCN(CCN1CCN(CCn2c3ccccc3c3ccccc32)CC1)[C@H]1CCc2nc(N)sc2C1 [(−)-101]
Key: 8.14

Exercise: // returns reported pKi for input CCCN(CCN1CCN(c2ccc3c(c2)[nH]c2ccccc23)CC1)C1CCc2nc(N)sc2C1 (stereo not shown) [Compound 90a]
Key: 8.21

Exercise: // returns reported pKi for input CCCN(CCN1CCN(c2ccc3[nH]c4ccccc4c3c2)CC1)[C@H]1CCc2c(O)cccc2C1 [(−)-95b]
Key: 8.71

Exercise: // returns reported pKi for input CCCN(CCN1CCN(c2ccc3c(c2)[nH]c2ccccc23)CC1)[C@H]1CCc2c(O)cccc2C1 [Compound (−)-95a]
Key: 9.40

Exercise: // returns reported pKi for input CCCN(CCN1CCN(c2ccc3c(c2)[nH]c2ccccc23)CC1)[C@H]1CCc2nc(N)sc2C1 [(−)-91a]
Key: 8.40

Exercise: // returns reported pKi for input CCCN(CCN1CCN(c2ccc3[nH]c4ccccc4c3c2)CC1)[C@H]1CCc2nc(N)sc2C1 [(−)-91b]
Key: 8.42

====

TGT: UniProt P61169
PROTOCOL_DETAILS: [3H]spiroperidol competition binding, rat D2L receptors in HEK-293 cells
CONDITION_SUMMARY: rat D2 in HEK-293 cells; values of Table 3
Please use TRUE for Ki under 80 nM and FALSE for everything else, ties included.

Exercise: Item CCCN(CCN1CCN(CCn2c3ccccc3c3ccccc32)CC1)C1CCc2nc(N)sc2C1 (stereo not shown) : Ki beneath 80 nM, strictly?
Key: FALSE

Exercise: Item CCCN(CCN1CCN(c2ccc3c(c2)[nH]c2ccccc23)CC1)[C@H]1CCc2nc(N)sc2C1 [(−)-91a] : Ki beneath 80 nM, strictly?
Key: FALSE

Exercise: Item CCCN(CCN1CCN(c2ccc3[nH]c4ccccc4c3c2)CC1)[C@H]1CCc2c(O)cccc2C1 [(−)-95b] : Ki beneath 80 nM, strictly?
Key: TRUE

Exercise: Item CCCN(CCN1CCN(c2ccc3c(c2)[nH]c2ccccc23)CC1)[C@H]1CCc2c(O)cccc2C1 [Compound (−)-95a] : Ki beneath 80 nM, strictly?
Key: TRUE

Exercise: Item CCCN(CCN1CCN(c2cccc3[nH]c4ccccc4c23)CC1)C1CCc2nc(N)sc2C1 (stereo not shown) [Compound 90c] : Ki beneath 80 nM, strictly?
Key: TRUE

Exercise: Item CCCN(CCN1CCN(c2ccc3[nH]c4ccccc4c3c2)CC1)[C@H]1CCc2nc(N)sc2C1 [(−)-91b] : Ki beneath 80 nM, strictly?
Key: FALSE

Exercise: Item CCCN(CCN1CCN(c2ccc3c(c2)[nH]c2ccccc23)CC1)C1CCc2nc(N)sc2C1 (stereo not shown) [Compound 90a] : Ki beneath 80 nM, strictly?
Key: FALSE

Exercise: Item CCCN(CCN1CCN(c2cccc3[nH]c4ccccc4c23)CC1)[C@H]1CCc2c(O)cccc2C1 [Compound (−)-95c] : Ki beneath 80 nM, strictly?
Key: TRUE

Exercise: Item CCCN(CCN1CCN(CCn2c3ccccc3c3ccccc32)CC1)[C@H]1CCc2nc(N)sc2C1 [(−)-101] : Ki beneath 80 nM, strictly?
Key: FALSE

Exercise: Item CCCN(CCN1CCN(c2ccc3[nH]c4ccccc4c3c2)CC1)C1CCc2nc(N)sc2C1 (stereo not shown) [Compound 90b] : Ki beneath 80 nM, strictly?
Key: FALSE

====

TGT: cloned rat D2L receptors (Rattus norvegicus (Rat))
Sequence (P61169 whole entry): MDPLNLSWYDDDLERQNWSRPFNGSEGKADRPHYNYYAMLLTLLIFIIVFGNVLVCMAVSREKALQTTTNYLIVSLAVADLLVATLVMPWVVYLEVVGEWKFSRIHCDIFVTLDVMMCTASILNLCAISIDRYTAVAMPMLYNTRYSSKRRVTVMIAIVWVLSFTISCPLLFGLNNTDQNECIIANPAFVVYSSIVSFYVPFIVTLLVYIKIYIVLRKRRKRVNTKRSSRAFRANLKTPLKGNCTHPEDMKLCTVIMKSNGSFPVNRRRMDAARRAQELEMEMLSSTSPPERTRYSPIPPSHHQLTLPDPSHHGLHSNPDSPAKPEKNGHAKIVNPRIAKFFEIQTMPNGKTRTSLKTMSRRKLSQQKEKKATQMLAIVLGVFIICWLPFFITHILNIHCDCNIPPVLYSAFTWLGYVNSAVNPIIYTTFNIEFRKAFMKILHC
PROTOCOL_DETAILS: [3H]spiroperidol competition binding, rat D2L receptors in HEK-293 cells
CONDITION_SUMMARY: ratio of Ki values; values of Table 3
QUANTITY: D2/D3
Form field (numeric): enter value without unit.

Exercise: // returns reported D2/D3 for input CCCN(CCN1CCN(c2ccc3c(c2)[nH]c2ccccc23)CC1)[C@H]1CCc2c(O)cccc2C1 [Compound (−)-95a]
Key: 177

Exercise: // returns reported D2/D3 for input CCCN(CCN1CCN(c2ccc3[nH]c4ccccc4c3c2)CC1)[C@H]1CCc2nc(N)sc2C1 [(−)-91b]
Key: 35

Exercise: // returns reported D2/D3 for input CCCN(CCN1CCN(c2ccc3[nH]c4ccccc4c3c2)CC1)C1CCc2nc(N)sc2C1 (centres unmarked) [Compound 90b]
Key: 196

Exercise: // returns reported D2/D3 for input CCCN(CCN1CCN(c2cccc3[nH]c4ccccc4c23)CC1)C1CCc2nc(N)sc2C1 (centres unmarked) [Compound 90c]
Key: 9.86

Exercise: // returns reported D2/D3 for input CCCN(CCN1CCN(CCn2c3ccccc3c3ccccc32)CC1)[C@H]1CCc2nc(N)sc2C1 [(−)-101]
Key: 12

Exercise: // returns reported D2/D3 for input CCCN(CCN1CCN(c2ccc3c(c2)[nH]c2ccccc23)CC1)C1CCc2nc(N)sc2C1 (centres unmarked) [Compound 90a]
Key: 146

Exercise: // returns reported D2/D3 for input CCCN(CCN1CCN(CCn2c3ccccc3c3ccccc32)CC1)C1CCc2nc(N)sc2C1 (centres unmarked)
Key: 65.9

Exercise: // returns reported D2/D3 for input CCCN(CCN1CCN(c2ccc3c(c2)[nH]c2ccccc23)CC1)[C@H]1CCc2nc(N)sc2C1 [(−)-91a]
Key: 128
